# system_under_test: p34 cdc2(CDK1)/cyclinB
# assay_comment: CDK assay: histone H1 phosphorylation with [32P]ATP by cdc2/cyclinB kinase
# Assay type: biochemical, starfish (Marthasterias glacialis)
# condition_description: values given in μM; read-out: IC50 ± SD CDK1

{"entry_smiles": "c1ccc(Nc2nc(OCC3CCCCC3)c3nc[nH]c3n2)cc1", "system_under_test": "p34 cdc2(CDK1)/cyclinB", "IC50, µM": 1.6}
{"entry_smiles": "CNC(=O)c1ccc(Nc2nc(OCC3CCCCC3)c3nc[nH]c3n2)cc1", "system_under_test": "p34 cdc2(CDK1)/cyclinB", "IC50, µM": 0.7}
{"entry_smiles": "O=S(=O)(NCc1ccccc1)c1ccc(Nc2nc(OCC3CCCCC3)c3nc[nH]c3n2)cc1", "system_under_test": "p34 cdc2(CDK1)/cyclinB", "IC50, µM": 0.7}
{"entry_smiles": "CSc1cccc(Nc2nc(OCC3CCCCC3)c3nc[nH]c3n2)c1", "system_under_test": "p34 cdc2(CDK1)/cyclinB", "IC50, µM": 2.4}
{"entry_smiles": "CCN(CC)C(=O)c1ccc(Nc2nc(OCC3CCCCC3)c3nc[nH]c3n2)cc1", "system_under_test": "p34 cdc2(CDK1)/cyclinB", "IC50, µM": 0.7}

---

# system_under_test: p34 cdc2(CDK1)/cyclinB
# assay_comment: CDK assay: histone H1 phosphorylation with [32P]ATP by cdc2/cyclinB kinase
# Assay type: biochemical, starfish (Marthasterias glacialis)
# condition_description: values given in μM; read-out: IC50 ± SD CDK1
# note: exactly 0.5 µM is not below, so it is false (0); use true (1) for IC50 strictly under it

{"molecule": "CCc1cccc(Nc2nc(OCC3CCCCC3)c3nc[nH]c3n2)c1", "answer_label": "false (0)"}
{"molecule": "Fc1ccc(Nc2nc(OCC3CCCCC3)c3nc[nH]c3n2)cc1", "answer_label": "false (0)"}
{"molecule": "CCCNC(=O)c1ccc(Nc2nc(OCC3CCCCC3)c3nc[nH]c3n2)cc1", "answer_label": "true (1)"}
{"molecule": "N#CCc1ccc(Nc2nc(OCC3CCCCC3)c3nc[nH]c3n2)cc1", "answer_label": "true (1)"}
{"molecule": "Nc1nc(OCC2CCCCC2)c2nc[nH]c2n1", "answer_label": "false (0)"}
{"molecule": "CN(C)C(=O)c1ccc(Nc2nc(OCC3CCCCC3)c3nc[nH]c3n2)cc1", "answer_label": "false (0)"}
{"molecule": "COc1ccc(Nc2nc(OCC3CCCCC3)c3nc[nH]c3n2)cc1", "answer_label": "false (0)"}
{"molecule": "CSc1ccc(Nc2nc(OCC3CCCCC3)c3nc[nH]c3n2)cc1", "answer_label": "false (0)"}
{"molecule": "Brc1cccc(Nc2nc(OCC3CCCCC3)c3nc[nH]c3n2)c1", "answer_label": "false (0)"}
{"molecule": "O=S(=O)(Nc1ccccc1)c1ccc(Nc2nc(OCC3CCCCC3)c3nc[nH]c3n2)cc1", "answer_label": "true (1)"}
{"molecule": "COc1cccc(Nc2nc(OCC3CCCCC3)c3nc[nH]c3n2)c1", "answer_label": "false (0)"}
{"molecule": "O=C(O)c1ccc(Nc2nc(OCC3CCCCC3)c3nc[nH]c3n2)cc1", "answer_label": "true (1)"}
{"molecule": "C[S+]([O-])c1ccc(Nc2nc(OCC3CCCCC3)c3nc[nH]c3n2)cc1 (stereo not shown)", "answer_label": "true (1)"}
{"molecule": "OCc1cccc(Nc2nc(OCC3CCCCC3)c3nc[nH]c3n2)c1", "answer_label": "true (1)"}
{"molecule": "NS(=O)(=O)c1ccc(CNc2nc(OCC3CCCCC3)c3nc[nH]c3n2)cc1", "answer_label": "false (0)"}
